Please respond with reported Binding selectivity ratio (Bcl-XL Ki/Bcl-2 Ki) for every item in the list.
- Test system: GST-Bcl-2
- Assay Details: TR-FRET binding assay, Bcl-2
- Test Context: TR-FRET Ki values

Prompt line: GET /values?readout=Binding selectivity ratio (Bcl-XL Ki/Bcl-2 Ki)&item= CC1(C)CCC(CN2CCN(c3ccc(C(=O)NS(=O)(=O)c4cnc(NCC5CCOCC5)c(C#N)c4)c(Oc4ccc5[nH]ccc5c4)c3)CC2)=C(c2ccc(Cl)cc2)C1
Response line: >96.7

Prompt line: Given O=C(NS(=O)(=O)c1ccc(NC2CCN(C3CCOCC3)CC2)c([N+](=O)[O-])c1)c1ccc(N2CCN(Cc3ccc(C(F)(F)F)cc3-c3ccc(Cl)cc3)CC2)cc1Oc1ccc2[nH]ccc2c1 , state its recorded Binding selectivity ratio (Bcl-XL Ki/Bcl-2 Ki).
Response line: >121.8

Prompt line: Reported Binding selectivity ratio (Bcl-XL Ki/Bcl-2 Ki) for CC1(C)CCC(CN2CCN(c3ccc(C(=O)NS(=O)(=O)c4ccc(NCCc5ccc(S(N)(=O)=O)cc5)c([N+](=O)[O-])c4)c(Oc4ccc5[nH]ccc5c4)c3)CC2)=C(c2ccc(Cl)cc2)C1 : what is it?
Response line: >29.5

Prompt line: Report Binding selectivity ratio (Bcl-XL Ki/Bcl-2 Ki) for CN1CCC(Nc2ccc(S(=O)(=O)NC(=O)c3ccc(N4CCN(CC5=C(c6ccc(Cl)cc6)CC(C)(C)CC5)CC4)cc3Nc3cccnc3)cc2[N+](=O)[O-])CC1 please.
Response line: >5706

---

For each of the compounds below, state its Binding selectivity ratio (Bcl-XL Ki/Bcl-2 Ki).
- Test system: GST-Bcl-2
- Assay Details: TR-FRET binding assay, Bcl-2
- Test Context: TR-FRET Ki values

Prompt line: I'd like to know its Binding selectivity ratio (Bcl-XL Ki/Bcl-2 Ki). The compound in question is COCCNc1ccc(S(=O)(=O)NC(=O)c2ccc(N3CCN(CC4=C(c5ccc(Cl)cc5)CC(C)(C)CC4)CC3)cc2Oc2cccc3[nH]ccc23)cc1S(=O)(=O)C(F)(F)F
Response line: >149.4

Prompt line: Entry under review: COC1CCN(c2ccc(S(=O)(=O)NC(=O)c3ccc(N4CCN(CC5=C(c6ccc(Cl)cc6)CC(C)(C)CC5)CC4)cc3Oc3ccc4[nH]ccc4c3)cc2[N+](=O)[O-])CC1 . Reported Binding selectivity ratio (Bcl-XL Ki/Bcl-2 Ki)?
Response line: >107.2

Prompt line: Item CC(C)[C@H](CO)Nc1ccc(S(=O)(=O)NC(=O)c2ccc(N3CCN(CC4=C(c5ccc(Cl)cc5)CC(C)(C)CC4)CC3)cc2Oc2ccc3[nH]ccc3c2)cc1[N+](=O)[O-] has what recorded Binding selectivity ratio (Bcl-XL Ki/Bcl-2 Ki)?
Response line: >78.8

Prompt line: Which Binding selectivity ratio (Bcl-XL Ki/Bcl-2 Ki) is listed for CC1(C)CCC(CN2CCN(c3ccc(C(=O)NS(=O)(=O)c4ccc(NC5CCN(C6CCOCC6)CC5)c([N+](=O)[O-])c4)c(Oc4cccc5[nH]ncc45)c3)CC2)=C(c2ccc(Cl)cc2)C1 ?
Response line: >162.14

Prompt line: Report Binding selectivity ratio (Bcl-XL Ki/Bcl-2 Ki) for CC1(C)CCC(CN2CCN(c3ccc(C(=O)NS(=O)(=O)c4ccc(NC5CCN(c6nccs6)CC5)c([N+](=O)[O-])c4)c(Oc4ccc5[nH]ccc5c4)c3)CC2)=C(c2ccc(Cl)cc2)C1 please.
Response line: >895.1
